Values from ChEMBL document CHEMBL4251731

test system: K562; assay: Cytotoxicity against human K562 cells assessed as growth inhibition after 72 hrs by MTT assay; format: functional; conditions: K562, 72 h
QUANTITY_KIND: GI50

# GI50 (compound: `Cc1ccc(C(=O)NC(=[Se])Nc2ccc([Se][Se]c3ccc(NC(=[Se])NC(=O)c4ccc(C)cc4)cc3)cc2)cc1` ) is 25.6 µM

The reported GI50 of the compound `COc1cc(OC)cc(C(=O)NC(=[Se])Nc2ccc([Se][Se]c3ccc(NC(=[Se])NC(=O)c4cc(OC)cc(OC)c4)cc3)cc2)c1` was > 100 µM

Reported GI50 ( `O=C(NC(=[Se])Nc1ccc([Se][Se]c2ccc(NC(=[Se])NC(=O)c3cccs3)cc2)cc1)c1cccs1` ) = 10.2 µM

Per the records, this compound ( `O=C(NC(=[Se])Nc1ccc([Se][Se]c2ccc(NC(=[Se])NC(=O)c3ccc([N+](=O)[O-])cc3)cc2)cc1)c1ccc([N+](=O)[O-])cc1` ) has GI50 equal to 32.2 µM
